system: Calu-3 Lung CA; assay: inhibition of cell proliferation (3H-thymidine uptake), Calu-3; assay type: cell-based; details: Homo sapiens
Value Kind: pIC50
Lab note: report pIC50 as minus log10 of the concentration in molar units, number only.

Task: Data request, read-out pIC50, for CC1=C(/C=C/C(C)=C/C=C/C(C)=C/C(=O)O)C(C)(C)CCC1 [TRA, All-trans retinoic acid]
Result: 7.00

---

system: H3396 Breast CA (E2-dep.); experiment: inhibition of cell proliferation (3H-thymidine uptake), H3396; assay type: cell-based; details: Homo sapiens, 7 days, 3H-thymidine, read-out: IC50
Value Kind: pIC50
Lab note: report pIC50 as minus log10 of the concentration in molar units, number only.

Task: Data request, read-out pIC50, for CC(C)(C)C#CC1=CCC(C)(C)c2ccc(/C=C/c3ccc(C(=O)O)cc3)cc21
Result: 7.40

---

Target chain: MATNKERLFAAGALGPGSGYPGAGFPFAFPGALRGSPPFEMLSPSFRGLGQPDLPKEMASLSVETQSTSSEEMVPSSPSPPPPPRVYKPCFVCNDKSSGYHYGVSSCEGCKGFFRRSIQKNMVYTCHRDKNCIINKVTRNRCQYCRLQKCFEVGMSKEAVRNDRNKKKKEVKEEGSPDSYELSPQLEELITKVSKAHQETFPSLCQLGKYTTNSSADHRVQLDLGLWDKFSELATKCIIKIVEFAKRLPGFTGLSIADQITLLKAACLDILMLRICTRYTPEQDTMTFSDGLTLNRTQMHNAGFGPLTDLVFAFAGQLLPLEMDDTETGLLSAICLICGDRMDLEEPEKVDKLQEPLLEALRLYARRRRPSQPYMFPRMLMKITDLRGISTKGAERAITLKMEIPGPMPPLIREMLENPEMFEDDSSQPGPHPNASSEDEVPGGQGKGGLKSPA
Value Kind: pKd
Lab note: report pKd as minus log10 of the concentration in molar units, number only.

Task: Data request, read-out pKd, for CC(C)(C)C#CC1=CCC(C)(C)c2ccc(/C=C/c3ccc(C(=O)O)cc3)cc21 [Compound I]
Result: 7.60

---

target: RARβ (Homo sapiens, UniProt P10826)
Sequence (P10826 whole entry): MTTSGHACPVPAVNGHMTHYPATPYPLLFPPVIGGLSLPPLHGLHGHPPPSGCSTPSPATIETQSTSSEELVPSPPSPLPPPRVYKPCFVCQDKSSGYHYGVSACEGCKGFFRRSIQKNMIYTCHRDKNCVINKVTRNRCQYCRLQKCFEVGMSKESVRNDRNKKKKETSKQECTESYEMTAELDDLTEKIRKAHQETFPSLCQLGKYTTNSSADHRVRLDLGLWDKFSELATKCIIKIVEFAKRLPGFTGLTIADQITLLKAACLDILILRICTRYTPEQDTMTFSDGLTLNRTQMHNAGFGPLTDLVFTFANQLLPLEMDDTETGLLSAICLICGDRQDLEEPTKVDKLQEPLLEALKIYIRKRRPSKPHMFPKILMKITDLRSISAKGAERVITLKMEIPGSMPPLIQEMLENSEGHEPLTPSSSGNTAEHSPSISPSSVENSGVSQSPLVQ
Value Kind: pKd
Lab note: report pKd as minus log10 of the concentration in molar units, number only.

Task: Record lookup: for RARβ (Homo sapiens, UniProt P10826), what pKd belongs to CC(C)(C)C#CC1=CCC(C)(C)c2ccc(/C=C/c3ccc(C(=O)O)cc3)cc21 [Compound I] ?
Result: 8.90

---

test system: rabbit skin; experiment: rabbit skin irritation model; assay type: in vivo; details: Table 3; topical daily 14 days, ethanol; concentration not given
Labelling: Erythema score reported below 3 becomes class 1; at or above becomes class 0.

Task: I wonder whether CC1=C(/C=C/C(C)=C/C=C/C(C)=C/C(=O)O)C(C)(C)CCC1 [TRA, All-trans retinoic acid] has Erythema score below 3. Can you tell?
Result: class 0

Task: I wonder whether CC(C)(C)/C=C\C1=CCC(C)(C)c2ccc(/C=C/c3ccc(C(=O)O)cc3)cc21 has Erythema score below 3. Can you tell?
Result: class 0

Task: I wonder whether CC1=C(C#CC(C)(C)C)c2cc(/C=C/c3ccc(C(=O)O)cc3)ccc2C(C)(C)C1 has Erythema score below 3. Can you tell?
Result: class 0

Task: I wonder whether CC(C)(C)C#CC1=CCC(C)(C)c2ccc(/C=C/c3ccc(C(=O)O)cc3)cc21 has Erythema score below 3. Can you tell?
Result: class 1

Task: I wonder whether CCC(C)(/C=C\C1=CCC(C)(C)c2ccc(/C=C/c3ccc(C(=O)O)cc3)cc21)CC has Erythema score below 3. Can you tell?
Result: class 1

Task: I wonder whether CC(C)(O)/C=C\C1=CCC(C)(C)c2ccc(/C=C/c3ccc(C(=O)O)cc3)cc21 has Erythema score below 3. Can you tell?
Result: class 1
